Target: FGFR2 (Homo sapiens, UniProt P21802)
Construct: purchased Carna
Sequence (P21802 22-821): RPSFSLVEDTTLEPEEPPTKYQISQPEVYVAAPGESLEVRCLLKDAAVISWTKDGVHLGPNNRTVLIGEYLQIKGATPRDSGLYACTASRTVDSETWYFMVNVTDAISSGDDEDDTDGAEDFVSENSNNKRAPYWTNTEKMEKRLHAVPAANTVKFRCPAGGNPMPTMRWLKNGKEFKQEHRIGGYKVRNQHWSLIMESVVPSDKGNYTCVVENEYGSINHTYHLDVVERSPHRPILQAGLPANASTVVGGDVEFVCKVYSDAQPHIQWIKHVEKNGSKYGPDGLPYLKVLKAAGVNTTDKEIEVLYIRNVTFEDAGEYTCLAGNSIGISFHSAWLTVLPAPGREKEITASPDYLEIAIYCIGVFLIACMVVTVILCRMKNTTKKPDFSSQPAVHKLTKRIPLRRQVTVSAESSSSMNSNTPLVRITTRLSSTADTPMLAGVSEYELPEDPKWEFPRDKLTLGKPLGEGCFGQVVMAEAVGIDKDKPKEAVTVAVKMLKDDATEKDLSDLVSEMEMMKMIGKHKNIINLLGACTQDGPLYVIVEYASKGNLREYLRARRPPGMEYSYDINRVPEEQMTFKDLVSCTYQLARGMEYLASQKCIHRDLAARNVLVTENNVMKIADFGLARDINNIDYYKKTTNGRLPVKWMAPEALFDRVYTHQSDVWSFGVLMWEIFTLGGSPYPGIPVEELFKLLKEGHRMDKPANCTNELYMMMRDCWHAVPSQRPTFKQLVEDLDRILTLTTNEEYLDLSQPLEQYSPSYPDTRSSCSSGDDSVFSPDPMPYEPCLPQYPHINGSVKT
Assay: FGFR biochemical assay (LanthaScreen TR-FRET), FGFR2
Conditions: enzyme pre-incubation 60 min; ATP 22 μM; FGFR2 0.01 nM
Method: The following procedure was used to test the compounds described herein: • Dilute the test compounds to 100× of the final desired highest concentration in reaction by 100% DMSO. • Perform a serial dilution in a 384-well source plate by transferring 15 μL to 30 μL of 100° C. […]
pIC50: −log10 of the molar value.
Attribute: pIC50

Reference set (4 entries):
# smiles_structure, pIC50
measured = [
    ("C=C(F)C(=O)Nc1ccc(-c2c(-c3ccc(Oc4nccc(C)n4)c(F)c3)c(C(N)=O)n3cc(Cl)cnc23)cc1", "7.00 to 8.00"),
    ("C=C(F)C(=O)Nc1ccc(-c2c(-c3ccc(Oc4nccc(C)n4)c(F)c3)c(C(N)=O)n3cc(C)cnc23)cc1", "> 8.00"),
    ("C=C(F)C(=O)Nc1ccc(-c2c(-c3ccc(Oc4nccc(C)n4)c(F)c3)c(C(N)=O)n3cc(CC)cnc23)cc1", "> 8.00"),
    ("C=C(F)C(=O)Nc1ccc(-c2c(-c3ccc(Oc4nccc(C)n4)cc3Cl)c(C(N)=O)n3cc(C)cnc23)cc1", "6.00 to 7.00"),
]

For the compound `C=C(F)C(=O)Nc1ccc(-c2c(-c3ccc(Oc4nccc(C)n4)c(F)c3)c(C(N)=O)n3cc(-c4cnn(C)c4)cnc23)cc1` , what pIC50 is on record?
> 8.00

Requested field: pIC50. Item: `C=C(F)C(=O)Nc1ccc(-c2c(-c3ccc(Oc4nccc(C)n4)c(F)c3)c(C(N)=O)n3cc(C)cnc23)c(F)c1`
> 8.00

What does the record list as pIC50 for `Cc1cnc2c(-c3ccc(NC(=O)/C=C/CNC4COC4)cc3)c(-c3ccc(Oc4nccc(C)n4)c(F)c3)c(C(N)=O)n2c1` ?
> 8.00

----------
system: SNU-16 (FGFR2); experiment: Cellular proliferation assay (CellTiter-Glo), SNU-16; format: cell-based; details: Homo sapiens, SNU-16 cells, 72 hours
The reader will find reported IC50 values listed item by item below.

Here's what some known entries look like.
# smiles_structure, observed_value
measured = [
    ("C=C(F)C(=O)Nc1ccc(-c2c(-c3ccc(Oc4nccc(C)n4)c(F)c3)c(C(N)=O)n3ccc(C)nc23)cc1", "10 to 100 nM"),
    ("C=C(F)C(=O)Nc1ccc(-c2c(-c3ccc(Oc4nccc(C)n4)c(F)c3)c(C(N)=O)n3cc(C4CC4)cnc23)cc1", "10 to 100 nM"),
]

Given the molecule `C=C(F)C(=O)Nc1ccc(-c2c(-c3ccc(Oc4nccc(C)n4)c(F)c3)c(C(N)=O)n3cc(C)ncc23)cc1` , what is its reported IC50?
< 10 nM

What value of IC50 has been recorded for this entry: `Cc1cnc2c(-c3ccc(NC(=O)/C=C/CN(C)C)cc3)c(-c3ccc(Oc4nccc(C)n4)c(F)c3)c(C(N)=O)n2c1`
< 10 nM

Fill blank: measured IC50 of the molecule `C=C(F)C(=O)N1CCc2cc(-c3c(-c4ccc(Oc5nccc(C)n5)c(F)c4)c(C(N)=O)n4cc(C)cnc34)ccc21` is ____.
< 10 nM

Could you share which IC50 value was measured for `Cc1cnc2c(-c3ccc(NC(=O)/C=C/CNC4COC4)cc3)c(-c3ccc(Oc4nccc(C)n4)c(F)c3)c(C(N)=O)n2c1` ?
< 10 nM

Which IC50 is listed for `C=C(F)C(=O)Nc1ccc(-c2c(-c3ccc(Oc4nccc(C)n4)c(F)c3)c(C(N)=O)n3cc(C)cnc23)cc1` ?
< 10 nM

For `C=C(F)C(=O)Nc1ccc(-c2c(-c3ccc(Oc4nccc(C)n4)cc3)c(C(N)=O)n3cc(C)cnc23)cc1` , what is its reported IC50?
< 10 nM
